Give IC50 at 72 h for every item shown.
# experiment summary: Cytotoxicity test, MTT colorimetric method, 293T
# Type: cell-based
# assay context: human
# Protocol: The cytotoxicity test was carried out with the MTT colorimetric method. 5×10^3 cells in a logarithmic growth phase were inoculated in each well of a 96-well plate, and incubated overnight at 37° C. in an incubator (5% CO2). Then, different concentrations of compounds were added and the incubation further continued for 72 hours. […] The absorbance of each well was measured at OD490 nm of the enzyme-linked immunometric meter. […]
*1 amine or outer side, *2 acyl side, *3 side chain or, on linkers, in order; H or OH if unused. Where a SMILES comes first, the peptide text is derived from it. [ ]: non-standard residue; d: D form. The star is where a group is joined. DAMPA = CN(Cc1cnc2nc(N)nc(N)c2n1)c1ccc(C(=O)*)cc1; Orn(N5-OH,N5-Ac) = CC(=O)N(O)CCC[C@H](N)C(=O)O; d(γGlu) = O=C(O)[C@@H](CCC(=O)[*:2])N[*:1]; Ethylenediamine = C(CN[*:2])N[*:1]

Data request: Quick check: IC50 at 72 h of CC(=O)N(O)CCC[C@H](NC(=O)[C@H](CCCN(O)C(C)=O)NC(=O)[C@@H](N)CCCN(O)C(C)=O)C(=O)NCCCCCNC(=O)CC[C@@H](NC(=O)c1ccc(N(C)Cc2cnc3nc(N)nc(N)c3n2)cc1)C(=O)O ?
Data returned: 8.82 µM

Data request: Quick check: IC50 at 72 h of CC(=O)N(O)CCC[C@H](NC(=O)[C@H](CCCN(O)C(C)=O)NC(=O)[C@@H](N)CCCN(O)C(C)=O)C(=O)NCCOCCOCCNC(=O)CC[C@@H](NC(=O)c1ccc(N(C)Cc2cnc3nc(N)nc(N)c3n2)cc1)C(=O)O ?
Data returned: 2.66 µM

Data request: Quick check: IC50 at 72 h of CC(=O)N(O)CCC[C@H](NC(=O)[C@H](CCCN(O)C(C)=O)NC(=O)[C@@H](N)CCCN(O)C(C)=O)C(=O)NCCNC(=O)[C@H](CCCCN)NC(=O)CC[C@@H](NC(=O)c1ccc(N(C)Cc2cnc3nc(N)nc(N)c3n2)cc1)C(=O)O ?
Data returned: 10.6 µM

Data request: Quick check: IC50 at 72 h of CC(=O)N(O)CCC[C@H](NC(=O)[C@H](CCCN(O)C(C)=O)NC(=O)[C@@H](N)CCCN(O)C(C)=O)C(=O)NCCNC(=O)[C@H](CO)NC(=O)[C@H](CO)NC(=O)CC[C@@H](NC(=O)c1ccc(N(C)Cc2cnc3nc(N)nc(N)c3n2)cc1)C(=O)O ?
Data returned: 5.38 µM

Data request: Quick check: IC50 at 72 h of CC(=O)N(O)CCC[C@H](NC(=O)[C@H](CCCN(O)C(C)=O)NC(=O)[C@@H](N)CCCN(O)C(C)=O)C(=O)N[C@@H](CO)C(=O)NCCNC(=O)CC[C@@H](NC(=O)c1ccc(N(C)Cc2cnc3nc(N)nc(N)c3n2)cc1)C(=O)O [3-4f] (H-[Orn(N5-OH,N5-Ac)][Orn(N5-OH,N5-Ac)][Orn(N5-OH,N5-Ac)]S-{Ethylenediamine-d(γGlu)-DAMPA}) ?
Data returned: 3.93 µM
